Observed pIC50 values for Ribose-phosphate pyrophosphokinase (Escherichia coli) are listed in what follows.
Numbers only, as −log10 of the molar value.

List the reported pIC50 of each compound below.
1. Nc1ncnc2c1ncn2[C@@H]1O[C@H](COP(=O)(O)O)[C@H](O)[C@@H]1O
2. Nc1ncnc2c1ncn2CCOCP(=O)(O)O [9-[2-phosphonomethoxyethyl]adenine]

[2.29, 2.49]
